Source listed as patent US20250154169A1.

- Test system: MYB mRNA
- method: Splicing RT-qPCR assay, MYB canonical (CJ) and alternative (AJ) junction mRNA
- Assay type: cell-based, human
- conditions.used: Homo sapiens, 24 h, A673 or K562 cells, 24 hours compound treatment, RT-qPCR; read-out: MYB CJ (IC50, decrease in canonical junction mRNA)
pIC50: −log10 of the molar value.
readout.kind: pIC50

In [3]: df
Out[3]:
                                        smi  measured_target  value_measured
0  Cc1cn2nc(NC(=O)c3ccc(N4CCNCC4)c4cn(C)nc34)nc2c(C)n1         MYB mRNA          < 5.00
1  Cc1cn2cc(NC(=O)c3ccc(N4CCNCC4)c4cn(Cc5cnco5)nc34)cc(F)c2n1         MYB mRNA          > 7.00
2  CCCCn1cc2c(N3CCNCC3)ccc(C(=O)Nc3cc(F)c4nc(C)cn4c3)c2n1         MYB mRNA    6.00 to 7.00
3  CCn1cc2c(N3CCC(CC)(NC)CC3)ccc(C(=O)Nc3cc(F)c4nc(C)cn4c3)c2n1         MYB mRNA          > 7.00
